Could you please report measured FACS (MF) for the items listed next?
study-target: Candida albicans (Cat. No. 10231, ATCC) whole cells (Candida albicans)
assay-remarks: C. albicans FACS, mean FITC fluorescence, Fab; assay background 100

ID-3-RD6-P1H10 Fab (Fab, V domains shown) VH: EVQLVESGGGLVKAGGSLILSCGVSNFRISAHTMNWVRRVPGGGLEWVASISTSSTYRDYADAVKGRFTVSRDDLEDFVYLQMHKMRVEDTAIYYCARKGSDRLSDNDPFDAWGPGTVVTVSP VL: GVVMTQSPSTLSASVGDTITITCRASQSIETWLAWYQQKPGKAPKLLIYKASTLKTGVPSRFSGSGSGTEFTLTISGLQFDDFATYHCQHYTAHNGATFGQGTRVEIKR | 3380 MF
ID-1-RD5-P2H8 Fab (Fab, V domains shown) VH: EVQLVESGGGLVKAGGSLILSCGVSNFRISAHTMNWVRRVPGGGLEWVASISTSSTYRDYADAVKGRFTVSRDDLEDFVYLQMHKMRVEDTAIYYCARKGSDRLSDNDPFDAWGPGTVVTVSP VL: GVVMTQSPSTLSASVGDTITITCRASQSIETWLAWYQQKPGKAPKLLIYKASTLKTGVPSRFSGSGSGTEFTLTISGLQFDDFATYHCQHYREWHATFGQGTRVEIKR | 4930 MF

Problem: Recorded FACS (MF) for ID-2-RD4-P1A5 Fab (Fab, V domains shown) VH: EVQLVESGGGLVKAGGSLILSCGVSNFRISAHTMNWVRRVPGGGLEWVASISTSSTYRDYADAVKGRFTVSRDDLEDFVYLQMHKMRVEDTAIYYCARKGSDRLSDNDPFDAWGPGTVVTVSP VL: GVVMTQSPSTLSASVGDTITITCRASQSIETWLAWYQQKPGKAPKLLIYKASTLKTGVPSRFSGSGSGTEFTLTISGLQFDDFATYHCQHYLSYNATFGQGTRVEIKR , please?
Result: 4000 MF
